# targetUnderTest: monomeric alpha-synuclein (UniProt P37840 1-140)
# assayMethodText: SPR, captured mAb
resultType: log10 of kon (log10 of the value in M⁻¹ s⁻¹)

ACI-8032-6313G2-Ab1 (antibody, V domains shown, mouse hybridoma mAb; VH/VL only; also called 6313G2A10) VH: EVQLQQSGPELVKPGASVKISCKASGYTFTDYYMNWVKQSHGKSLEWIGDIDPNNGVTSYSQKFKGKATLTVDKSSSTAYMELRSLTSEDSAVYYCARTGYYGTSLYYAMDYWGQGTSVTVSS VL: DIVMSQSPSSLAVSAGEKVTMNCKSSQSLLNSRTRKNYLAWYQQKPGQSPKLLIYWASTRESGVPDRFIGSGSGTGFTLTISSVQAEDLAVYYCKQSYDLWTFGGGTKLEIK = 4.53
ACI-7079-3112H1-Ab1 (antibody, V domains shown, mouse hybridoma mAb; VH/VL only; also called 3112H1F3) VH: EVQLQQSGPELVKPGASVKISCKASGYTFSDYFMNWVKQSHGKSLEWIGDINPNNGGSSYIQKFKGKATLTVDKSSTTAYMELRSLTSEDSAVYYCARGSNYAMDSWGQGTSVTVSS VL: DIVMSQSPSSLAVSAGEKVTMSCKSSQSLLNSRTRKNYLAWYQQKPGQSPKLLIYWASTRESGVPDRFTGSGSGTDFTLTISSVQAEDLAVYYCKQSYDLWTFGGGTKLEIK = 5.33
ACI-8033-21C8-Ab1 (antibody, V domains shown, mouse hybridoma mAb; VH/VL only; also called 917.21C8E4C8) VH: QVQLQQPGAELVKPGASVKMSCKASGYTFTSYWITWVRQRPGQGLDWIGDIYPGGGVTNYNEKFKTKATLTVDTSSSTAYMHLSSLTSEDSAVYFCATAQTTFAYWGQGTLVTVSA VL: DVLMTQTPLSLPVSLGDQASISCRSSQNIVHNNGNTYLEWYLQKPGQSPKLLIYKVSNRFSGVPDRFSGSGSGTDFTLKISRVEAEDLGVYYCFQGSHVPRTFGGGTKLEIK = 5.48
ACI-7079-3103G12-Ab2 (antibody, V domains shown, mouse hybridoma mAb; VH/VL only; also called 3103G12D2B10) VH: DVQLQESGPGMVKPSQSLSLTCTVTGYSITSGYDWHWIRHFPGNKLEWMGYITYSGSTNYNPSLKSRISITHDTSKNHFFLKLTSVTTEDTATYYCARDTVDAWFAYWGQGTLVTVSA VL: DVLMTQAPLSLPVSLGDQASISCRSSQSIVHSNGDTYLEWYLQKPGQSPKLLIYKVSNRFSGVPDRFSGSGSGTDFTLKISRVEAEDLGVYYCFQGSHVPPTFGGGTKLEIK = 5.76
ACI-8032-6314A3-Ab3 (antibody, V domains shown, mouse hybridoma mAb; VH/VL only; also called 6314A3E4) VH: QVQLQQSGAELARPGASVKLSCKASGYTFTSYGVSWVKQRTGQGLEWIGEIYPRSGNTYYNEKFKGKATLTADKSSSTAYMELRSLTSEDSAVYFCASESYYGDYDWYFDVWGTGTTVTVSS VL: DVLMTQIPLSLPVSPGDQVFISCRSSQSIVHSNGNTYLEWYLQKPGQSPKPLIYKVSNRFSGVPDRFSGSGSGTDFTLKISRVEAEDLGVYYCFQGSHVPPTFGGGTKLEIK = 6.36
